experiment: In vivo pharmacokinetic studies; details: male, Swiss albino, mouse, plasma, iv, 1 mg/kg
measuredEndpoint: clearance at 24 h (mL/min/kg)
Express your answer in mL/min/kg, writing the number without its unit.

Supply clearance at 24 h value. Item: CCN1CCN(Cc2ccc(NC(=O)c3ccc(C)c(Oc4ncnc5[nH]c(C)cc45)c3)cc2C(F)(F)F)CC1 [Compound 5]
26.5

Provide only the value of recorded clearance at 24 h for CCN1CCN(Cc2ccc(NC(=O)c3ccc(C)c(Oc4ncnc5[nH]ccc45)c3)cc2C(F)(F)F)CC1 [Compound 3]
65.8

Tell us which clearance at 24 h value is on record for CCN1CCN(Cc2ccc(NC(=O)c3ccc(C)c(Oc4ncnc5[nH]ncc45)c3)cc2C(F)(F)F)CC1 [Compound 4]
99.2

###

target: TAK1 (Homo sapiens, UniProt O43318)
Sequence (O43318 1-303 limits assumed): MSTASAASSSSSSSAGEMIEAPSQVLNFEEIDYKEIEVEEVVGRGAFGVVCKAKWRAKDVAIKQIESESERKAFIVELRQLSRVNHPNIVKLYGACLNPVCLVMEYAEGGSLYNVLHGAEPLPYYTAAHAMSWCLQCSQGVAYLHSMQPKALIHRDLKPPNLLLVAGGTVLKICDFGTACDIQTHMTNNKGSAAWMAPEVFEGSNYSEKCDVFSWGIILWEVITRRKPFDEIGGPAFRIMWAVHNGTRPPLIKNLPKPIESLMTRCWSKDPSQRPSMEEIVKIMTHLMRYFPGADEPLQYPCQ
measuredEndpoint: pIC50
Scale note: pIC50 = -log10(concentration in M).

Provide one value: measured pIC50 of `CCN1CCN(Cc2ccc(NC(=O)c3ccc(C)c(Oc4ccnc5[nH]ccc45)c3)cc2C(F)(F)F)CC1`
7.82

###

experiment: In vivo pharmacokinetic studies; conditions: male, Swiss albino, mouse, plasma, iv, 1 mg/kg
measuredEndpoint: half-life (h)
The figure you give is taken to be in h; do not add the unit.

Answer with reported half-life of CCN1CCN(Cc2ccc(NC(=O)c3ccc(C)c(Oc4ccnc5[nH]ccc45)c3)cc2C(F)(F)F)CC1 [Compound 1]
2
